Origin of measurements: patent US5424428A

- protocol-summary: Water solubility in 67 mM phosphate buffer (pH 2)
- Type: physicochemical
- condition-context: aqueous buffer; water solubility, 67 mM phosphate buffer (pH 2)
quantity-measured: solubility (µg/mL)
Give the quantity in µg/mL, number only.

If you can, please state the reported solubility value of CC1CC(=O)NN=C1c1ccc(NN=C(C#N)C#N)cc1 (single isomer, unassigned; (-)) [(-) enantiomer] .
29
